The compounds listed here are annotated with their melting point.

The cases that follow already have their melting point on record.
CCNC(=O)n1nc(Oc2ccc(C#N)cc2C(F)(F)F)cc1C [Example 95] = 103 to 105 °C
Cc1cc(Oc2ncc(C(F)(F)F)cc2Cl)nn1C(=O)N(C)C [Compound 4-10] = 102 to 104 °C
CCc1cc(Oc2ccc([N+](=O)[O-])cc2C(F)(F)F)nn1C(=O)NC = 97 to 100 °C

Task: Provide one value: measured melting point of Cc1cc(Oc2c(Cl)cc(C(F)(F)F)cc2Cl)nn1C(N)=O [Example 223]
Result: 152 to 154 °C

Task: Annotate the compound `CCc1cc(Oc2ncc(C(F)(F)F)cc2Cl)nn1C(=O)NC` with its measured melting point.
Result: 85 to 87 °C
